Test: Quantitative High-Throughput drug screen in 47 multiple myeloma cell lines against the NCATS MIPE library collection: MM1S_ATCC cell viability assay (AID 1918980); also: nearly all actives have a fitted effect of over 45% in size
Conditions: MM1S myeloma viability, CellTiter-Glo ATP luminescence, 48 h; series mostly up to 45.8 µM
Records with an inconclusive call do not appear. Calls of active or inactive are those of the source. Calls follow the shape of the dose curve; as a rule, active = well fitted cell-killing curve with a large enough effect; inconclusive = small, poorly fitted or top-dose-only effect, or effect the other way; inactive = no such curve, though single readings can be large or run the other way.
A correct response names exactly one class from Y for active, N for inactive

See these solved cases before continuing.
N#Cc1c(NC(=O)c2cccc3ccccc23)sc2c1CCCC2 ... Y
CC(C)NC[C@@H](C(=O)N1CCN(c2ncnc3c2[C@H](C)C[C@H]3O)CC1)c1ccc(Cl)cc1 ... Y
NC1=N[C@H]2[C@H](CS[C@H]2CCCCC(=O)O)N1 ... N

For "CC(C)[C@H](CO)Nc1nc(Nc2cccc(Cl)c2)c2ncn(C(C)C)c2n1" , which call appears in the assay record?
Y

For this compound, state the assay outcome: "COc1cc(C(C)C)c(Oc2cnc(NC(CO)CO)nc2N)cc1I"
Y

###

Assay: NS1 protein of Zika virus - qHTS assay to identify small molecule inhibitors in human HEK 293 cells (AID 1347053); also: nearly all actives have a fitted effect of over 55% in size
Settings: HEK293 ZIKV MR766 infection, NS1 TR-FRET, 24 h; series mostly up to 46.1 µM
Inconclusive results are not listed. Activity calls are given as the source filed them. The call rests on the fitted dose curve; in most records, active means well fitted inhibition curve with a large enough effect; inconclusive means small, poorly fitted or top-dose-only effect; inactive means no such curve, though single readings can be large or run the other way.
Give one outcome, nothing more. List: y = active, n = inactive

Below are worked cases with known answers.
CN[C@@H]1C[C@H]2O[C@@](C)([C@H]1OC)n1c3ccccc3c3c4c(c5c6ccccc6n2c5c31)C(=O)N[C@H]4O ... y
C[C@H](O)[C@@H]1C(=O)N2C(C(=O)O)=C(S[C@@H]3CN[C@H](CNS(N)(=O)=O)C3)[C@@H](C)[C@@H]12 ... n
C=CC1=C(C(=O)O)N2C(=O)[C@@H](NC(=O)C(=NO)c3csc(N)n3)[C@H]2SC1 ... n
CC(=O)O[C@H]1C[C@@H]2CC[C@H]3[C@H]4C[C@H]([N+]5(C)CCCCC5)[C@@H](OC(C)=O)[C@@]4(C)CC[C@@H]3[C@@]2(C)C[C@H]1N1CCCCC1 ... n
C[C@@]12C[C@@]3(O)O[C@@H](O1)[C@]1(COC(=O)c4ccccc4)[C@@H]3C[C@@]12O[C@@H]1O[C@H](CO)[C@@H](O)[C@H](O)[C@@H]1O ... n

Returns: the outcome recorded for "CC[C@]12C=CCN3CC[C@@]4(c5cc([C@@]6(C(=O)OC)C[C@H]7C[C@@H](C(C)(F)F)CN(Cc8c6[nH]c6ccccc86)C7)c(OC)cc5N(C)[C@H]4[C@@](O)(C(=O)OC)[C@H]1OC(C)=O)[C@@H]32" in this assay.
y

Dear all, I need the recorded test outcome for Nc1nc(=O)n([C@H]2CSC(CO)O2)cc1F (stereo partly drawn) , thank you.
n

How was "CC(C)(C)c1nc2c3cc[nH]c(=O)c3c3cc(F)ccc3c2[nH]1" classified in this test?
n

###

Experiment: Quantitative High-Throughput drug screen in 47 multiple myeloma cell lines against the NCATS MIPE library collection: KMS28BM_JCRB cell viability assay (AID 1919874); also: nearly all actives have a fitted effect of over 35% in size
Settings: CellTiter-Glo ATP, 48 h; series mostly up to 45.8 µM
Records with an inconclusive call do not appear. The source made the active and inactive calls. Calls come from the whole dose curve; as a rule, active = well fitted cell-killing curve with a large enough effect; inconclusive = small, poorly fitted or top-dose-only effect, or effect the other way; inactive = no such curve, though single readings can be large or run the other way.
The categories you may choose from are yes (1) for active, no (0) for inactive

Which outcome was entered for the molecule "CCN(CC)CCNC(=O)c1c(C)[nH]c(C=C2C(=O)Nc3ccc(F)cc32)c1C" in this test?
yes (1)

Any idea what this test logged for "NC(=O)c1ncn([C@@H]2O[C@H](CO)[C@@H](O)[C@@H]2O)c1N" ?
no (0)

Outcome logged for "CC[C@H]1OC(=O)[C@H](C)[C@@H](O[C@H]2C[C@@](C)(OC)[C@@H](O)[C@H](C)O2)[C@H](C)[C@@H](O[C@@H]2O[C@@H](C)C[C@H](N(C)C)[C@@H]2O)[C@](C)(O)C[C@@H](C)C(=O)[C@H](C)[C@@H](O)[C@]1(C)O" in this assay:
no (0)

Identify the outcome logged in this assay for the molecule shown: "C=C1C(=O)O[C@H]2[C@@H]1CCC(C)=CCC[C@@]1(C)O[C@@H]21"
yes (1)

What was the test verdict on "C#C[C@]1(O)CC[C@@H]2[C@@H]3CCC4=CC(=O)CC[C@@H]4[C@H]3CC[C@@]21CC" ?
no (0)

Hi, do you know how "C=Cc1c(C)c2cc3nc(cc4[nH]c(cc5nc(cc1[nH]2)C(C)=C5CCC(=O)O)c(CCC(=O)OC)c4C)[C@@]1(C)C3=CC=C(C(=O)OC)[C@H]1C(=O)OC" came out in this test?
yes (1)

For this molecule, state the assay outcome: CCCNC(=O)[C@H]1O[C@H]1C(=O)N[C@H](C(=O)N1CCC[C@@H]1C(=O)OC)C(C)CC (some centres not stated)
yes (1)
